Tested on: Nucleic Acid
Experiment: Thermal stabilization of […] poly(rA).poly(rU) duplex RNA assessed as change in transition temperature at 15 uM after 4 hrs by temperature-dependent spectrophotometry in presence of 150 mM K+ ions
Assay type: nucleic-acid assay
PROPERTY_LABEL: deltaT (°C)
Kindly provide the numeric value in °C only, without the unit symbol.

Entry CN(C)CCc1cc2cc(c1)CNC(=O)c1coc(n1)-c1coc(n1)-c1cccc(n1)-c1nc(co1)-c1nc(co1)C(=O)NC2 , deltaT reported as 0.5

Data point: O=C1NCc2cccc(c2)CNC(=O)c2coc(n2)-c2csc(n2)-c2cccc(n2)-c2nc(cs2)-c2nc1co2 ; deltaT = 0

// deltaT lookup, compound = O=C1NCc2cccc(c2)CNC(=O)c2coc(n2)-c2coc(n2)-c2cccc(n2)-c2nc(co2)-c2nc1co2 , result: 0

The value of deltaT measured for the compound NCCc1cc2cc(c1)CNC(=O)c1coc(n1)-c1coc(n1)-c1cccc(n1)-c1nc(co1)-c1nc(co1)C(=O)NC2 turned out to be 0.5
